// data source = patent US20130143915A1

# TESTED TARGET: TYK2 (Homo sapiens)
# Construct: endogenous in cells; host or cells: mixed Molt4/Ramos cell lysate (1:2)
# TEST DESCRIPTION: Kinobeads assay, TYK2 (competition binding in mixed Molt4/Ramos cell lysate, dot blot detection)
Could you please report measured IC50 for the items listed next?

CS(=O)(=O)Nc1ccc(-c2cccc3nc(NC(=O)C4CC4)nn23)c(F)c1 :: 100 to 1000 nM

Here are 3 compounds. What values of IC50 were reported for them?
1. COc1ccc(-c2cccc3nc(NC(=O)C4CC4)nn23)c(F)c1
2. COc1ccc(-c2cccc3nc(NC(=O)C4CC4)nn23)c(C)c1
3. Cc1ccc(-c2cccc3nc(NC(=O)C4CC4)nn23)c(C)c1

100 to 1000 nM
100 to 1000 nM
100 to 1000 nM

---

Could you please report measured pIC50 for the items listed next?
# TESTED TARGET: TYK2 (Homo sapiens, UniProt P29597)
# Construct: endogenous in cells
# Sequence (P29597 whole entry): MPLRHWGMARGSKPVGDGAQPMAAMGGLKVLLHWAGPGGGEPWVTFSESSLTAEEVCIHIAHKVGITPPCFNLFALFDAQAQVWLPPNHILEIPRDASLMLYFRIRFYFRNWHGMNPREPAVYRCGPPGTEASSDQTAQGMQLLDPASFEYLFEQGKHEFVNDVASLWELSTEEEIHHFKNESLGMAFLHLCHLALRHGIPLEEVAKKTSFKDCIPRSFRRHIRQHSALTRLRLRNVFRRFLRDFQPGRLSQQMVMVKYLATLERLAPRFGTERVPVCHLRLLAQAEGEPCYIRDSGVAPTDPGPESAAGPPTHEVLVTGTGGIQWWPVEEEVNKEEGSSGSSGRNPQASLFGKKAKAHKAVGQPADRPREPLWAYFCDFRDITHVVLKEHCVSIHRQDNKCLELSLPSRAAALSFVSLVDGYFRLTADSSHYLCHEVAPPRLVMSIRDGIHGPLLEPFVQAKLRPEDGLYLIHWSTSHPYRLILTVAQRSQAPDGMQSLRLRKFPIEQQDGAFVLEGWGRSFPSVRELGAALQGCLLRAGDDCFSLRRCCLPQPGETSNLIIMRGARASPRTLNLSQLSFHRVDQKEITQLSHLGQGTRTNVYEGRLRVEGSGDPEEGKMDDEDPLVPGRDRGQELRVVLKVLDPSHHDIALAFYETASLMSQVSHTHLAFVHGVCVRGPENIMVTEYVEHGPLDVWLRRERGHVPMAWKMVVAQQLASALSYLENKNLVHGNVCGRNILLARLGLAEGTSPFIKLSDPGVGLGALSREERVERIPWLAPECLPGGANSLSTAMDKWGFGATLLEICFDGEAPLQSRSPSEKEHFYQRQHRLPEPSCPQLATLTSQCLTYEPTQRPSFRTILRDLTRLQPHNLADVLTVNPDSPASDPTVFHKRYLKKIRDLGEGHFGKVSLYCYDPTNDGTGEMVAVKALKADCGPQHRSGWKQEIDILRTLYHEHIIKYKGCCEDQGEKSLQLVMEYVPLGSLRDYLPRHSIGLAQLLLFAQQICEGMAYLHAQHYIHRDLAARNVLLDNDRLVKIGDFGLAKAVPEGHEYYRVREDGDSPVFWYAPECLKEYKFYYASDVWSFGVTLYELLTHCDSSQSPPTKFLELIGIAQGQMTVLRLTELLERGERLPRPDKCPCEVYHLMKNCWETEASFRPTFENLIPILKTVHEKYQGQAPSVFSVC
# TEST DESCRIPTION: Kinobeads assay, TYK2 (competition binding in mixed Molt4/Ramos cell lysate, dot blot detection)
# Method: The compounds of the present invention as described in the previous examples were tested in a Kinobeads™ assay as described for ZAP-70 (WO-A 2007/137867). […] Bound proteins were then eluted and the presence of TYK2 and JAK2 was detected and quantified using specific antibodies in a dot blot procedure and the Odyssey infrared detection system. Dose response curves for individual kinases were generated and IC50 values calculated. […]
pIC50: −log10 of the molar value.

Record excerpt, results attached:
CS(=O)(=O)Nc1ccc(-c2cccc3nc(NC(=O)C4CC4)nn23)c(Cl)c1 :: 6.00 to 7.00
Nc1ccc(-c2cccc3nc(NC(=O)C4CC4)nn23)c(F)c1 :: 6.00 to 7.00

Proceeding to the next compound to report its pIC50.
Annotate the compound COc1ccc(-c2cccc3nc(NC(=O)C4CC4)nn23)c(Cl)c1 with its measured pIC50.
6.00 to 7.00

---

Could you please report measured IC50 for the items listed next?
# TESTED TARGET: JAK2 (Homo sapiens, UniProt O60674)
# Construct: endogenous in cells
# Sequence (O60674 whole entry): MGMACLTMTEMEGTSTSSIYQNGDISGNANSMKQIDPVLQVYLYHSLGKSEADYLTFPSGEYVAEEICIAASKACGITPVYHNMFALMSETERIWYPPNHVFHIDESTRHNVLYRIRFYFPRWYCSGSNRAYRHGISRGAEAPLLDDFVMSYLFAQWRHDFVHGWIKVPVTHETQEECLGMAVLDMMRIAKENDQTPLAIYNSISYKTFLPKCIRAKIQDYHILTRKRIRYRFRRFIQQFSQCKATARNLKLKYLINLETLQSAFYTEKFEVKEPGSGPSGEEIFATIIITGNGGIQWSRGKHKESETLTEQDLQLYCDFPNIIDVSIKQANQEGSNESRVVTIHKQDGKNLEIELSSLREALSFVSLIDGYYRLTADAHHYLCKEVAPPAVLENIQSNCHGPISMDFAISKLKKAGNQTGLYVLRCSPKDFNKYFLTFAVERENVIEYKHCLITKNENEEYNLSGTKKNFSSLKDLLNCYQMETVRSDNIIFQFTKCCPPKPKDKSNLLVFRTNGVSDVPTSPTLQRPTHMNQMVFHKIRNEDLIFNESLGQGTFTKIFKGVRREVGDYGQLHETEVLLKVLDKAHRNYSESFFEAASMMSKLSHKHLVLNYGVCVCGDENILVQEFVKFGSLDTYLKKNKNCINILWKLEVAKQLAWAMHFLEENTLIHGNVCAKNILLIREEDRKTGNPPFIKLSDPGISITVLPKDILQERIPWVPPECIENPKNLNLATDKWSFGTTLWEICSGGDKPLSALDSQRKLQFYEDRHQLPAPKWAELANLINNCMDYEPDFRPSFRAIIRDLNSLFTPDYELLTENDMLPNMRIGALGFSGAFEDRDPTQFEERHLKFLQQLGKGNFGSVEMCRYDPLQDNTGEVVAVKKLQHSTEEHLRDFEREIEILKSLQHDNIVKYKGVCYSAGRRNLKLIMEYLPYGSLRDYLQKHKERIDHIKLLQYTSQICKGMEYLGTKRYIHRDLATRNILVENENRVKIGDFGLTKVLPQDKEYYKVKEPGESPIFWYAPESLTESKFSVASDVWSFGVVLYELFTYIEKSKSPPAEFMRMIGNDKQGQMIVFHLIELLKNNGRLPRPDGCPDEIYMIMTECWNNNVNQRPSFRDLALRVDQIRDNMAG
# TEST DESCRIPTION: Kinobeads assay, JAK2 (competition binding in mixed Molt4/Ramos cell lysate, dot blot detection)

COc1ccc(-c2cccc3nc(NC(=O)C4CC4)nn23)c(F)c1 :: > 10 µM
Nc1ccc(-c2cccc3nc(NC(=O)C4CC4)nn23)c(Cl)c1 :: > 10 µM
O=C(Nc1nc2cccc(-c3ccc(Cl)cc3Cl)n2n1)C1CC1 :: > 10 µM
Cc1ccc(-c2cccc3nc(NC(=O)C4CC4)nn23)c(C)c1 :: > 10 µM
COc1ccc(-c2cccc3nc(NC(=O)C4CC4)nn23)c(C)c1 :: > 10 µM

Here are 2 compounds. What values of IC50 were reported for them?
1. CS(=O)(=O)c1ccc(-c2cccc3nc(NC(=O)C4CC4)nn23)c(F)c1
2. O=C(Nc1nc2cccc(-c3ccc(NS(=O)(=O)C4CC4)cc3Cl)n2n1)C1CC1

> 10 µM
> 10 µM

---

# TESTED TARGET: TYK2 (Homo sapiens, UniProt P29597)
# Construct: endogenous in cells
# TEST DESCRIPTION: Kinobeads assay, TYK2 (competition binding in mixed Molt4/Ramos cell lysate, dot blot detection)
MEASUREMENT TYPE: IC50

Record excerpt, results attached:
Nc1ccc(-c2cccc3nc(NC(=O)C4CC4)nn23)c(Cl)c1 [Example 6] :: 100 to 1000 nM
CS(=O)(=O)c1ccc(-c2cccc3nc(NC(=O)C4CC4)nn23)c(F)c1 [Example 5] :: 100 to 1000 nM

Here are 3 molecules. What values of IC50 were reported for them?
1. O=C(Nc1nc2cccc(-c3ccc(Cl)cc3Cl)n2n1)C1CC1 [Example 2]
2. O=C(Nc1nc2cccc(-c3ccc(NS(=O)(=O)C4CC4)cc3Cl)n2n1)C1CC1 [Example 11]
3. COc1ccc(-c2cccc3nc(NC(=O)C4CC4)nn23)c(C(F)(F)F)c1 [Example 3]

1. 100 to 1000 nM
2. < 100 nM
3. 1000 to 10000 nM
